- measurement-target: HIV-1 Env of BG505.w6m (HIV-1)
- measurement-description: cell-based or functional assay

binder	result-qualifier	neutralization IC50 (µg/mL)
CAP256-VRC26.01 (antibody, V domains shown) VH: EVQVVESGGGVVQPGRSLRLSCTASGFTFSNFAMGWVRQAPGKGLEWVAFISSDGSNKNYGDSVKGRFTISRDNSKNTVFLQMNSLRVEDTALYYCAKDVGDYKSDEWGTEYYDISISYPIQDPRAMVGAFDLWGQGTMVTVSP VL: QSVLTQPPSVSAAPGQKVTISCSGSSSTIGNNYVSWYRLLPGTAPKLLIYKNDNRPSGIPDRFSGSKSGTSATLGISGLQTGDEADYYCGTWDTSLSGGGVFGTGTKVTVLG	>	50
CAP256-VRC26.12 (antibody, V domains shown) VH: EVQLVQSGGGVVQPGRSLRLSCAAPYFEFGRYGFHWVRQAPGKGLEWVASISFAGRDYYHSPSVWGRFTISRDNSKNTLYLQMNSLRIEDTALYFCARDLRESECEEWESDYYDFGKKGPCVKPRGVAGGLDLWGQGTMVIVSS VL: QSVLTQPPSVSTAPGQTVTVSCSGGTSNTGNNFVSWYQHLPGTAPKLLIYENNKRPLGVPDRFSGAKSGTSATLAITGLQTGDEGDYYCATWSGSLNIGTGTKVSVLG	>	50
CAP256-VRC26.03 (antibody, V domains shown) VH: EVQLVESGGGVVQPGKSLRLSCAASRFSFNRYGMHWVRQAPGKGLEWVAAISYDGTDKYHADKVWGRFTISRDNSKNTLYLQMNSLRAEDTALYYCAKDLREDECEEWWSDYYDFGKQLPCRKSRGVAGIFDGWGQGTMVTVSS VL: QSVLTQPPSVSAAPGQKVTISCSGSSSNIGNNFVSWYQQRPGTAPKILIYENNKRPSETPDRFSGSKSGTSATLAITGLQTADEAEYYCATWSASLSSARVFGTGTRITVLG	=	4.76
CAP256-VRC26.08 (antibody, V domains shown) VH: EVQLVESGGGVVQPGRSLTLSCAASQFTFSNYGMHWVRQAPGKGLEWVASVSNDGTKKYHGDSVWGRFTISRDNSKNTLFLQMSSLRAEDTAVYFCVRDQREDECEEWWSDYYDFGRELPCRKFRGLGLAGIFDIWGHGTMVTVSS VL: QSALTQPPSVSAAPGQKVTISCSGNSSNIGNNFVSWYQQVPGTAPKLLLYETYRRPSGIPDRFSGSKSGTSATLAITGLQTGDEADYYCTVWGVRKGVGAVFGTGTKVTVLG	=	0.143
CAP256-VRC26.09 (antibody, V domains shown) VH: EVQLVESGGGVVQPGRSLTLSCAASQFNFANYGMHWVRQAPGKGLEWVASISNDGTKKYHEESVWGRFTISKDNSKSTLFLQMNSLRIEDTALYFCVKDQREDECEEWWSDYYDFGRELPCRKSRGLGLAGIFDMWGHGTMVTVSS VL: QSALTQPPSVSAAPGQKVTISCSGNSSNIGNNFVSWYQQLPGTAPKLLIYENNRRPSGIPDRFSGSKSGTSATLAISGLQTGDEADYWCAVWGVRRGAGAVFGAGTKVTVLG	=	0.054
CAP256-VRC26.07 (antibody, V domains shown) VH: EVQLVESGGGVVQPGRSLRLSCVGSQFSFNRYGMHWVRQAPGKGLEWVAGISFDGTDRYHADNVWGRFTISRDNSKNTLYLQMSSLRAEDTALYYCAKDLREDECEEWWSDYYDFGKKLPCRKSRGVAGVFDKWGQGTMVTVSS VL: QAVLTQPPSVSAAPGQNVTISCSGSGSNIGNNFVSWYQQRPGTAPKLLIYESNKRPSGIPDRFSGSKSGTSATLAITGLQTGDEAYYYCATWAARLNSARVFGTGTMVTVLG	>	50
CAP256-VRC26.02 (antibody, V domains shown) VH: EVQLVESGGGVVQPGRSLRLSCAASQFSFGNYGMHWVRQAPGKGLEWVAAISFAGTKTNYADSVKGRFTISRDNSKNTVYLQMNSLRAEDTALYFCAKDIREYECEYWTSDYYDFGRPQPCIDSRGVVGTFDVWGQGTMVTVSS VL: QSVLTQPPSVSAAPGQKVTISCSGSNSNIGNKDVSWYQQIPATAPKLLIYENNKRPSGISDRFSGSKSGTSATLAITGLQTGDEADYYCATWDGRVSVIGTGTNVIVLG	>	50
CAP256-VRC26.05 (antibody, V domains shown) VH: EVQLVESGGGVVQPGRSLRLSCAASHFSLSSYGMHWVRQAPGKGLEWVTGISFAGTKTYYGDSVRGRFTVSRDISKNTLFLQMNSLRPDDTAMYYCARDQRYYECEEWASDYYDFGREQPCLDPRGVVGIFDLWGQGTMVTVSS VL: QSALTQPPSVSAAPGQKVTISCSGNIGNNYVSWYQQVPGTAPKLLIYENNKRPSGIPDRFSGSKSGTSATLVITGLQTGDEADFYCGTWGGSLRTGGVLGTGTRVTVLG	>	50
CAP256-VRC26.04 (antibody, V domains shown) VH: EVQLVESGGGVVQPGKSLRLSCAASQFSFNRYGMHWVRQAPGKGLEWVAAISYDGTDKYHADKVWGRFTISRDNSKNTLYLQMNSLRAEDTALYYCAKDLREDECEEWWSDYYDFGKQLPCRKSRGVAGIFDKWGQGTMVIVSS VL: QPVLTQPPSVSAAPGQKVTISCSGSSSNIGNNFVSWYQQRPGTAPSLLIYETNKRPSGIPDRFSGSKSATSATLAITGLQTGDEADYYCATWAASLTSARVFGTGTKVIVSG	=	8.43
